Assay overview: E. coli acrAB mutant growth effects, primary screen, E. coli filamentation inducers, strain DRC39, OD650, 24 h (AID 1178);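 also: growth measured as culture turbidity by optical density at 650 nm; test concentration not given here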
Test conditions: higher = more signal, called active from +8 up or from −8 down
Measured metric: z-score

INSERT INTO measurements (compound, recorded_result) VALUES
  ('CCOC(=O)[C@H](Cc1ccccc1)NC(=O)CCC1CC(OC(=O)NCCc2ccc(F)cc2)CC2(CCCC(COC(=O)NCCCN3CCCC3=O)O2)O1 (some centres undefined)', -0.198),
  ('CC(C)=CCCC(C)=CCON=C1C[C@@H](O)[C@@H](O)[C@@H]2[C@@H]3C(=O)N(c4cccc(Oc5ccccc5)c4)C(=O)[C@@H]3CC[C@@H]12', 0.615),
  ('CCCCC#C[C@@H]1C=C[C@H](Oc2cc(OC)c(OC)c(OC)c2)[C@@H](COC(=O)OCC)O1', 1.02),
  ('O=C1C[C@@H](O)[C@@H](O)[C@@H]2[C@@H]3C(=O)N(c4cccc(Oc5ccccc5)c4)C(=O)[C@@H]3CC[C@H]12', -0.539);
